Biological target: E3 ubiquitin-protein ligase SIAH1 (Homo sapiens)
Test: Siah-1 peptide-binding antagonists, primary screen, biochemical, fluorescence polarization, rhodamine-plectin, uHTS (AID 1817)
Conditions: Siah-1 / rhodamine-plectin peptide fluorescence polarization; at 20 µM
Out of some 290,000 compounds screened, about 50 (0.02%) were called active.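 How the source made its calls: active means displacement of at least 50% at 20 µM, with a fluorescence ratio check between 0.3 and a set limit; inactive means the rest.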 The full list was thinned out, with actives kept by preference. Entries with a potency or affinity are not part of this list.
Possible outcomes: True (active), False (inactive)

# molecule, label
data = [
    ("O=c1cc2oc3cc(O)c(O)cc3c(-c3ccccc3[N+](=O)[O-])c-2cc1O", "False"),
    ("O=[N+]([O-])c1cc(Cc2ccccc2)cc(C=Nc2ccc(N3CCOCC3)cc2)c1O", "True"),
    ("O=C(COC(=O)c1ccc2c(c1Cl)C(=O)c1ccccc1C2=O)NC1CCCCC1", "False"),
    ("CC(C)COC(=O)c1ccc2c(c1O)C(=O)c1ccccc1C2=O", "False"),
    ("CCC(NC(=O)CCc1c(C)c2cc3c(C)c(C)oc3cc2oc1=O)C(=O)N[C@@H](Cc1ccccc1)C(=O)O (stereo partly drawn)", "False"),
    ("CCOc1ccccc1-c1c2cc(O)c(=O)cc-2oc2cc(O)c(O)cc12", "True"),
    ("Cc1[nH]c2ccccc2c1CCNC(=O)c1ccc2c(c1[N+](=O)[O-])C(=O)c1ccccc1C2=O", "False"),
    ("CC(=O)Nc1cccc(Oc2ncccc2[N+](=O)[O-])c1", "False"),
    ("O=[N+]([O-])c1cc(Br)c(O)c(C=Nc2ccc(N3CCOCC3)cc2)c1", "False"),
    ("CCN(CC)C(=O)c1ccc2c(c1[N+](=O)[O-])C(=O)c1ccccc1C2=O", "False"),
    ("O=C(COC(=O)c1ccc2c(c1Cl)C(=O)c1ccccc1C2=O)NC1CC1", "False"),
    ("O=C(COC(=O)c1ccc2c(c1[N+](=O)[O-])C(=O)c1ccccc1C2=O)NC1CC1", "True"),
    ("O=C1C=C(Nc2ccccc2)c2ccccc2C1=O", "False"),
    ("Oc1ccc(Cl)cc1N=Nc1ccccc1", "False"),
    ("COc1cc(OC)c(-c2c3cc(O)c(=O)cc-3oc3cc(O)c(O)cc23)cc1OC", "False"),
    ("CN(C)C(=O)c1ccc2c(c1[N+](=O)[O-])C(=O)c1ccccc1C2=O", "True"),
    ("CCCn1c(=O)c(C(=O)NCc2ccncc2)c(O)c2ccccc21", "False"),
    ("CCOC(=O)c1nn(-c2cccc(OC)c2)c2nc(CC)c(C#N)c(=O)n12", "False"),
]

* * *

Molecular target: E3 ubiquitin-protein ligase SIAH1 (Homo sapiens) (UniProt Q8IUQ4)
Sequence (Q8IUQ4 whole entry, looked up): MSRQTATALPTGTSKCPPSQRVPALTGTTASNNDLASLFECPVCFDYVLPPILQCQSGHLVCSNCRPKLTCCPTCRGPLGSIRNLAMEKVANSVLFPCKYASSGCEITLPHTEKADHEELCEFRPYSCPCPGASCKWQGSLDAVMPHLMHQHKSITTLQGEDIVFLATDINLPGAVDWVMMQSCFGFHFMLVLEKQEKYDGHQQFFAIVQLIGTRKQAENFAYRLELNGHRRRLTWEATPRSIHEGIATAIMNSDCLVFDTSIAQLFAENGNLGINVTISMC
Assay: Siah-1 peptide-binding antagonists, primary screen, biochemical, fluorescence polarization, rhodamine-plectin, uHTS (AID 1817)
Details: Siah-1 / rhodamine-plectin peptide fluorescence polarization; at 20 µM
The whole screen tested about 290,000 compounds, of which about 50 (0.02%) were called active.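 How the source made its calls: active means displacement of at least 50% at 20 µM, with a fluorescence ratio check between 0.3 and a set limit; inactive means the rest.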 The sample holds actives, similar compounds and a random draw of the others, so the mix is not that of the screen. Potency and affinity values are given separately.
Possible outcomes: active, inactive

# compound, label
measured = [
    ("CCN1CCN(c2cc(N3CCN(C(=O)c4ccco4)CC3)c3c4c(onc24)-c2ccccc2C3=O)CC1", "inactive"),
    ("CC(C)c1ccccc1NC(=S)N(C)C", "inactive"),
    ("O=C(Nc1ccc(S(=O)(=O)Nc2nccs2)cc1)/C(=C/c1ccccc1Cl)NC(=O)c1ccccc1", "active"),
    ("O=C(Nc1ccc(Br)cc1)c1ccc(N2C(=O)C3CC=C(Cl)CC3C2=O)cc1 (configuration not stated)", "inactive"),
    ("COc1ccc(-c2nc(CN3CCN(Cc4cccc(F)c4)CC3)c(C)o2)cc1", "inactive"),
    ("Cc1sc2cc(-c3cccc([N+](=O)[O-])c3)c(-c3cccc([N+](=O)[O-])c3)c[n+]2c1C", "inactive"),
    ("Cc1cccc(N2CCN(C(=O)c3ccc(NC(=O)C4CCCO4)cc3)CC2C)c1 (configuration not stated)", "inactive"),
    ("Cc1nc(N)sc1-c1csc(Nc2ccccn2)n1", "inactive"),
    ("CCOc1ccc2noc3c2c1C(=O)c1ccccc1-3", "inactive"),
    ("Cc1cccc(C)c1NC(=O)C1CCCN1S(=O)(=O)c1ccc2c(c1)n(C)c(=O)c(=O)n2C (configuration not stated)", "inactive"),
    ("CC(NC(=O)C1CCCN(S(=O)(=O)c2cccs2)C1)c1ccccc1 (configuration not stated)", "inactive"),
    ("C=CCNC(=S)Nc1ccc2nc(C)c(C)nc2c1", "inactive"),
    ("CCOC(=O)c1sc(=S)n(CC)c1N", "inactive"),
    ("O=C(Nc1ccc(S(=O)(=O)N2CCOCC2)cc1)c1ccc(S(=O)(=O)N2CCOCC2)cc1", "inactive"),
    ("O=C(NCc1ccco1)/C(=C\\c1ccc(F)cc1)NC(=O)c1ccco1", "inactive"),
    ("CCN1C(=C(C#N)C#N)C=Cc2ccccc21", "inactive"),
    ("O=C(CSCc1nc2scc(-c3cccs3)c2c(=O)[nH]1)Nc1ccccn1", "inactive"),
    ("O=C(CN1C(=O)N/C(=C\\c2ccccc2OCc2ccc(C(=O)O)cc2)C1=O)Nc1ccccc1F", "inactive"),
    ("CCCN1C(=O)/C(=c2\\s/c(=C3\\C=Cc4ccccc4N3CC)c(=O)n2-c2ccccc2)SC1=S", "inactive"),
    ("Cc1nc(N)sc1-c1csc(Nc2ncccn2)n1", "active"),
    ("Cc1c(C)n(C(=O)CSc2ncn[nH]2)c2ccccc12", "inactive"),
    ("CC(C)N1CCC(N2CCN(C/C=C/c3ccc(F)cc3)CC2CCO)CC1 (configuration not stated)", "inactive"),
    ("CCCn1c(=C(C#N)C#N)s/c(=C2\\C=Cc3ccccc3N2CC)c1=O", "active"),
    ("O=C(NCc1ccccn1)C1CCN(S(=O)(=O)N2CCCC2)CC1", "inactive"),
    ("Cc1nc(N)sc1-c1csc(Nc2ccccc2)n1", "inactive"),
    ("CC(=O)c1ccc(NC(=O)CCNS(=O)(=O)c2ccccc2F)cc1", "inactive"),
    ("Cn1cc(NC(=O)OCc2ccc(Cl)cc2)c(C(F)(F)F)n1", "inactive"),
]
